Molecular target: T1, cynomolgus monkey TMPRSS6 expressed on HEK293T cells (CynoTMPRSS6-(His)6) (cynomolgus monkey, UniProt Q8IU80 10-811 (human entry))
T1 chain: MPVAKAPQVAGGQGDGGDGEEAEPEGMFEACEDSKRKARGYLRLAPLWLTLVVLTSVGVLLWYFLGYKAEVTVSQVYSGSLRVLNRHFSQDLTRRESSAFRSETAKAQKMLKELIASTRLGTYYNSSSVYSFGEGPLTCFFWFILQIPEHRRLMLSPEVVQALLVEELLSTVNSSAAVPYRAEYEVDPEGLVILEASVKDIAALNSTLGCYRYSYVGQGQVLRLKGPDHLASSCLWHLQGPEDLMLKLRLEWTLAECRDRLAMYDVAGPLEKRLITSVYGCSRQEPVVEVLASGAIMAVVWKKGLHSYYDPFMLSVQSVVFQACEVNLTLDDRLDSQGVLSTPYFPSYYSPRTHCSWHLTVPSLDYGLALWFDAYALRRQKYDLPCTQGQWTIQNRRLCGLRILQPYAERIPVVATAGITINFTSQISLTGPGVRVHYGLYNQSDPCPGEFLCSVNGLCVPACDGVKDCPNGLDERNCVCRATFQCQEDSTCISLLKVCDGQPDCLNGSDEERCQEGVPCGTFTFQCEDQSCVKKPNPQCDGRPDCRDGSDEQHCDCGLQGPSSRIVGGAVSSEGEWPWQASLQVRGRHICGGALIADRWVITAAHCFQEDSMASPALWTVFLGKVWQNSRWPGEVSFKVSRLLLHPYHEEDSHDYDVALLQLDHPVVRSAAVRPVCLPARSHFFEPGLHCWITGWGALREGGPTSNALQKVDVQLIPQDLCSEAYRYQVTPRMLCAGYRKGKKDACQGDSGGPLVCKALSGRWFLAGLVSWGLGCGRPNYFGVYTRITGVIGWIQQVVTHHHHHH
Experiment: cell surface ELISA on fixed HEK293T cells expressing cynomolgus monkey TMPRSS6
READOUT: binding result

{"BINDER": "MWTx-001 anti-TMPRSS6 antibody (antibody, mouse IgG2a, kappa, V domains shown, Mouse monoclonal antibody from a hybridoma (ATCC PTA-126759)) VH: QVQLQQPGAELAKPGASVKMSCKASGYTFTSYWITWVKQRPGQDLEWIGNIYPGSGSTYYNEKFKSKATLTVDTSSRTAYMQLSSLTSADSAVYYCAPYDSDYAMDYWGQGTSVTVSS VL: DIKMTQSPSSMYASLGERVTITCKASQDINNYLSWFQQKPGKSPKTLIYRANRLVDGVPSRVSGSGSGQDYSLTISSLEYEDVGIYFCLQYDEFPLTFGAGTKLELKR", "READOUT": "binding result", "TEST RESULT": "binds"}
